Data credit: patent US20210121418A1

assay_summary: clinical
condition_summary: male, human, plasma, oral
value_type: half-life

[[record]]
chemical_structure = "NC(N)=N/N=C/C=C/c1cccn1-c1ccccc1[N+](=O)[O-]"
value_type = "half-life"
result = "~20 h"

